Experimental System: SARS-CoV RBD (SARS-CoV, UniProt P59594 318-510)
Experimental Details: Beacon optofluidic screen: IgG secreted by single B cell, RBD on beads
Measured Parameter: binding result

* M8a-31 (antibody, V domains shown) VH: EVQLKQSVAELVRPGASVKVSCTASGFNIKNIYMHWVKQRPEQGLDWIGRIDPANGNSRYAPKFQDKATITADTSSNTAYLQLSSLTSEDTAIYYCADEGWGFANWGQGTLVTVSA VL: DIVMTQSPSSLTVTAGEKVTMSCKSSQSLLNSGNQKNYLTWYQQKVGQPPKLLIYWASTRDPGVPDRFTGSGFGTDFTLTISSVQAEDLAVYYCQNDYSYPLTFGAGTKVELK | binds
